SYSTEM TESTED: δ-opioid receptor (DOR), Human-ORPD1 (human, UniProt P41143 1-372)
Sequence (P41143 whole entry, stated change not applied): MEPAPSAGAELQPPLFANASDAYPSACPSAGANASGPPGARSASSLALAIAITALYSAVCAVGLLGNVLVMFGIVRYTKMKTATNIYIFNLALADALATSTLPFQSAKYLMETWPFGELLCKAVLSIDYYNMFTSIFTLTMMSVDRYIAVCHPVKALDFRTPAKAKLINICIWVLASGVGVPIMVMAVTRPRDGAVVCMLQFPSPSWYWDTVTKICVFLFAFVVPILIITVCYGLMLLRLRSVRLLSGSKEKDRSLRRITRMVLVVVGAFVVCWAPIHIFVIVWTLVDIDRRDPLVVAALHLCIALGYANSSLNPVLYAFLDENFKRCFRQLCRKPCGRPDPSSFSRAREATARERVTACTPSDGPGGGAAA
ASSAY INFO: cell-based or functional assay
Square brackets hold non-standard residues; d marks the D form. Primed or numbered codes have the meaning given here. Dmt = Cc1cc(O)cc(C)c1C[C@H](N)C(=O)O; β3hF = N[C@H](CC(=O)O)Cc1ccccc1; Tic(7-OH)′ = not defined here; Aib = CC(C)(N)C(=O)O; Sar = CNCC(=O)O
Reported values of DOR EC50 for individual entries

{"columns": ["BINDER", "DOR EC50"],
 "data": [
  ["H-[Dmt][dA]V[β3hF][Sar]-NH2 (SMILES Cc1cc(O)cc(C)c1C[C@H](N)C(=O)N[C@H](C)C(=O)N[C@H](C(=O)N[C@H](CC(=O)N(C)CC(N)=O)Cc1ccccc1)C(C)C) [H-DMT-a-Val-bhF-Sar-NH2]", "≤ 200 nM"]
]}

Could you tell me which DOR EC50 is on file for H-[Tic(7-OH)′][dA]G[β3hF][Sar]-NH2 [H-Tic(7-OH)-a-G-bhF-Sar-NH2] ?
≤ 50 nM

Now the same for H-[Dmt][dR][Sar]W-NH2 (SMILES Cc1cc(O)cc(C)c1C[C@H](N)C(=O)N[C@H](CCCNC(=N)N)C(=O)N(C)CC(=O)N[C@@H](Cc1c[nH]c2ccccc12)C(N)=O) [H-DMT-r-Sar-W-NH2]
> 200 nM

Now the same for H-[Dmt][dA][Aib][β3hF][Sar]-NH2 (SMILES Cc1cc(O)cc(C)c1C[C@H](N)C(=O)N[C@H](C)C(=O)NC(C)(C)C(=O)N[C@H](CC(=O)N(C)CC(N)=O)Cc1ccccc1) [H-DMT-a-Aib-bhF-Sar-NH2]
≤ 1 nM
